This collection of values is drawn from patent US12583818B2.

system: A2780-SP cells (ovarian cancer stem cells); assay: Sphere cell viability of A2780-SP cells (Cell-titer Glo); assay type: cell-based; details: 192 h; sphere cell viability, culture for 8 days; read-out: A2780-SP
Each item that follows carries a reported IC50.

[[record]]
compound = "O=S(=O)(NCCCc1c[nH]c2ccc(Cl)cc12)c1ccc(OC[C@@H](O)CN2CCNCC2)cc1"
experimental_system = "A2780-SP cells (ovarian cancer stem cells)"
measurement = "< 1000 nM"


Could you now look at the following compound, please?
Could you tell me which IC50 is on file for O=S(=O)(NCCCc1c[nH]c2ccc(Cl)cc12)c1ccc(OCCCN2CCNCC2)cc1 ?
< 1000 nM

====

Each item that follows carries a reported IC50.
target: Pin1 (Homo sapiens, UniProt Q13526); construct: purchased Anaspec; assay: Evaluation of Pin1 enzyme inhibitory activity (Sensolyte Green Pin1 assay kit); format: biochemical; conditions: concentration at which the Pin1 enzyme activity is inhibited; 2 hours at room temperature, fluorescence 490 nm/520 nm; read-out: Pin 1 inhibition
Sequence (Q13526 whole entry): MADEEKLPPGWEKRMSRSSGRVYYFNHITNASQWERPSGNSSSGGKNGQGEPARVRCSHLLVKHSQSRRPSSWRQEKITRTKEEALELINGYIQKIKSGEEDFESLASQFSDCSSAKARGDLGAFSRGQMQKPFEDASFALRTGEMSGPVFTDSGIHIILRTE

[[record]]
substance_smiles = "CC(C)N1CCN(CCCOc2ccc(S(=O)(=O)NCCc3c[nH]c4ccccc34)cc2)CC1"
measurement = "> 100000 nM"


Could you tell me which IC50 is on file for O=S(=O)(NCCCc1c[nH]c2ccc(Cl)cc12)c1ccc(OCCCN2CCNCC2)cc1 ?
< 1000 nM

Could you tell me which IC50 is on file for C[C@@H]1CN(CCCOc2ccc(S(=O)(=O)NCCCc3c[nH]c4ccc(Cl)cc34)cc2)CCN1 ?
< 1000 nM

Could you tell me which IC50 is on file for O=S(=O)(NCCCc1c[nH]c2ccc(Cl)cc12)c1ccc(Oc2cccc(Br)c2)cc1 ?
1000 to 10000 nM

====

Each item that follows carries a reported pIC50.
biological target: Pin1 (Homo sapiens); construct: purchased Anaspec; experiment: Evaluation of Pin1 enzyme inhibitory activity (Sensolyte Green Pin1 assay kit); assay type: biochemical; details: concentration at which the Pin1 enzyme activity is inhibited; 2 hours at room temperature, fluorescence 490 nm/520 nm; read-out: Pin 1 inhibition
pIC50: −log10 of the molar value.

Worked set:
[[record]]
compound = "CN1CCN(CCOc2ccc(S(=O)(=O)NCCCc3c[nH]c4ccccc34)cc2)CC1 [Example 52]"
measurement_kind = "pIC50"
measurement = "4.00 to 5.00"

[[record]]
compound = "CCCCOc1ccc(S(=O)(=O)NCCCc2cccc3ccccc23)cc1 [Example 19]"
measurement_kind = "pIC50"
measurement = "< 4.00"

[[record]]
compound = "CN1CCN(C[C@@H](O)COc2ccc(S(=O)(=O)NCCCc3c[nH]c4ccc(Cl)cc34)cc2)CC1 [Example 171]"
measurement_kind = "pIC50"
measurement = "> 6.00"

[[record]]
compound = "O=S(=O)(NCCCc1c[nH]c2ccccc12)c1ccc(OCCCN2CCCCC2)cc1 [Example 43]"
measurement_kind = "pIC50"
measurement = "4.00 to 5.00"

[[record]]
compound = "O=S(=O)(NCCCc1c[nH]c2ccc(Cl)cc12)c1ccc(OCCCN2CCC(O)CC2)cc1 [Example 75]"
measurement_kind = "pIC50"
measurement = "> 6.00"


Could you tell me which pIC50 is on file for CN1CCC(CCCOc2ccc(S(=O)(=O)NCCCc3c[nH]c4ccccc34)cc2)CC1 [Example 60] ?
5.00 to 6.00

Could you tell me which pIC50 is on file for CN(C)CCCOc1ccc(S(=O)(=O)NCCc2ccc(C(=O)O)cc2)cc1 [Example 17] ?
< 4.00

Could you tell me which pIC50 is on file for Cc1ccc2[nH]cc(CCCNS(=O)(=O)c3ccc(OCCCN4CCN(C)CC4)cc3)c2c1 [Example 67] ?
5.00 to 6.00

Could you tell me which pIC50 is on file for O=S(=O)(NCCCc1c[nH]c2ccc(Cl)cc12)c1ccc(Oc2cccc(N3CCCNCC3)c2)cc1 [Example 129] ?
5.00 to 6.00

Could you tell me which pIC50 is on file for O=S(=O)(NCCCc1c[nH]c2ccc(Cl)cc12)c1ccc(Nc2cccc(N3CCNCC3)n2)cc1 [Example 132] ?
5.00 to 6.00

Could you tell me which pIC50 is on file for CCCCOc1ccc(S(=O)(=O)NCCCC2CCCCC2)cc1 [Example 4] ?
< 4.00

Could you tell me which pIC50 is on file for O=S(=O)(NCCCc1c[nH]c2ccccc12)c1ccc(OCCCN2CCNCC2)cc1 [Example 45] ?
5.00 to 6.00

Could you tell me which pIC50 is on file for CC(CCc1c[nH]c2ccc(Cl)cc12)NS(=O)(=O)c1ccc(OCCCN2CCNCC2)cc1 (stereo not drawn) [Example 152] ?
> 6.00
